# experimental-target: T1, human GIPR (human, UniProt P48546 22-466)
# T1 sequence (looked up): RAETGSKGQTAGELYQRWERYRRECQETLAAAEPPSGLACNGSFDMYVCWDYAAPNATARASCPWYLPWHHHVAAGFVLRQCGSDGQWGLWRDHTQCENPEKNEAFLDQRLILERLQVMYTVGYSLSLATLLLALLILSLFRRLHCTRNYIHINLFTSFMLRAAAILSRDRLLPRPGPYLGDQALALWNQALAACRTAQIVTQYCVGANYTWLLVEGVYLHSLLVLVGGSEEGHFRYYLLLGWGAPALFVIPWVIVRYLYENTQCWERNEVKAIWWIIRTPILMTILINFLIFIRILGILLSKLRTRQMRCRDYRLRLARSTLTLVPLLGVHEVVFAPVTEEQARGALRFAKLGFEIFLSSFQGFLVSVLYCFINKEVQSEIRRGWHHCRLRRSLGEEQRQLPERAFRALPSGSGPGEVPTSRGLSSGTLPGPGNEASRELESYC
# method-description: cell-based or functional assay
Square brackets hold non-standard residues; d marks the D form. Side chains are listed from the residue outwards. αMeF = C[C@](N)(Cc1ccccc1)C(=O)O; Iva = CC[C@](C)(N)C(=O)O; Oda = not defined here; Aib = CC(C)(N)C(=O)O
quantity-name: Agonist activity (EC50), Cre-luc reporter assay (pM)
Number in pM, nothing else.

Reported Agonist activity (EC50), Cre-luc reporter assay for H-Y[Aib]EGT[αMeF]TSDK([Gly-Gly-Gly-Gly-Oda])AI[Aib]LEKQRQ[Iva]EFVRHLLNK[Aib]TRQRY-NH2 (reading uncertain; also: printed as H-Tyr-Aib-Glu-Gly-Thr-αMePhe-Thr-Ser-Asp-Lys(-Gly-Gly-Gly-Gly-Oda)-Ala-Ile-Aib-Leu-Glu-Lys-Gln-Arg-Gln-Iva-Glu-Phe-Val-Arg-His-Leu-Leu-Asn-Lys-Aib-Thr-Arg-Gln-Arg-Tyr-NH2) was 360

The binder identified as Me-Y[Aib]EGT[αMeF]TSDK([Gly-Gly-Gly-Gly-Pal])SI[Aib]LDKQRQ[Iva]EFVRHLLNK[Aib]TRQRY-NH2 registered its Agonist activity (EC50), Cre-luc reporter assay at 50

Agonist activity (EC50), Cre-luc reporter assay reading for H-Y[Aib]EGT[αMeF]TSDK([Gly-Gly-Gly-Gly-Oda])AI[Aib]LDKQRQ[Iva]EFVRHLLNK[Aib]TRQRY-NH2 (reading uncertain; also: printed as H-Tyr-Aib-Glu-Gly-Thr-αMePhe-Thr-Ser-Asp-Lys(-Gly-Gly-Gly-Gly-Oda)-Ala-Ile-Aib-Leu-Asp-Lys-Gln-Arg-Gln-Iva-Glu-Phe-Val-Arg-His-Leu-Leu-Asn-Lys-Aib-Thr-Arg-Gln-Arg-Tyr-NH2) : 260
